- SUBJECT_OF_TEST: Beta-1 adrenergic receptor (Canis familiaris)
- TEST_PROTOCOL: In vitro Beta-1 adrenergic receptor affinity in partially purified membrane fractions from canine cardiac tissue using […] (4.5 nM)
METRIC: pIC50
As a rule, pIC50 stands for the negative log10 of the concentration, concentration in M.

Reported pIC50 for Cc1nccn1-c1ccc(OCCNCC(O)COc2ccc(N(C)S(C)(=O)=O)cc2)cc1 (configuration not stated) : what is it?
4.74

Reported pIC50 for CN(c1ccc(OCC(O)CNCCOc2ccc(-n3ccnc3)cc2)cc1)S(C)(=O)=O (configuration not stated) : what is it?
4.68
